Molecular target: human PDE1C (Homo sapiens (Human), UniProt Q14123)
pIC50: −log10 of the molar value.
property: pIC50

// below: answered molecules
{"molecule": "CCCCn1c(=O)c2nnc(C3(C)CC3)n2c2ncc(CO)cc21", "pIC50": 8.40}
{"molecule": "CCC(Cn1c(=O)c2nnc(C3(C4CC4)CC3)n2c2ncccc21)OC (single isomer, unassigned) [Example 4a]", "pIC50": 8.83}
{"molecule": "O=c1c2nnc(C3(C4CC4)CC3)n2c2nc(O)ccc2n1CC1CC1", "pIC50": 9.03}

(1) CCCCn1c(=O)c2nnc(C3(C(F)(F)F)CC3)n2c2ncc(C)cc21
(2) CCC(Cn1c(=O)c2nnc(C3(C4CC4)CC3)n2c2ncccc21)OC (racemic) [Example 4]
## Task Lab notebook, comparison: 1 versus 2 , higher pIC50 goes to which? Answer by stating the label of the chosen item.
## Result 2
(2: 9.22, 1: 8.79)

###

Biological target: human PDE1A (Homo sapiens (Human), UniProt P54750)
property: IC50 (nM)

(a) CCCCn1c(=O)c2nnc(C3(C4CC4)CC3)n2c2nc(C)ccc21
(b) CCCCn1c(=O)c2nnc(C3(C)CC3)n2c2ncc(CC)cc21
## Task Lab notebook, comparison: a versus b , higher IC50 goes to which? Answer by stating the label of the chosen item.
## Result b
(b: 8.01 nM, a: 0.816 nM)

###

pIC50: −log10 of the molar value.
Entries below carry reported pIC50 on human PDE1B (Homo sapiens (Human), UniProt Q01064).
property: pIC50

{"smiles": "CCCCn1c(=O)c2nnc(C3(C(F)(F)F)CC3)n2c2ncc(C)cc21", "pIC50": 7.92}

(A) CCCCn1c(=O)c2nnc(C3(C4CC4)CC3)n2c2nc(C)c(C)cc21
(B) O=c1c2nnc(C3(C4CC4)CC3)n2c2nc(O)ccc2n1CC1CC1
## Task Lab notebook, comparison: A versus B , higher pIC50 goes to which? Answer by stating the label of the chosen item.
## Result A

###

Molecular target: human PDE6A/6B (Homo sapiens (Human), UniProt P16499+P35913)
Sequence (P16499 whole entry, change not shown): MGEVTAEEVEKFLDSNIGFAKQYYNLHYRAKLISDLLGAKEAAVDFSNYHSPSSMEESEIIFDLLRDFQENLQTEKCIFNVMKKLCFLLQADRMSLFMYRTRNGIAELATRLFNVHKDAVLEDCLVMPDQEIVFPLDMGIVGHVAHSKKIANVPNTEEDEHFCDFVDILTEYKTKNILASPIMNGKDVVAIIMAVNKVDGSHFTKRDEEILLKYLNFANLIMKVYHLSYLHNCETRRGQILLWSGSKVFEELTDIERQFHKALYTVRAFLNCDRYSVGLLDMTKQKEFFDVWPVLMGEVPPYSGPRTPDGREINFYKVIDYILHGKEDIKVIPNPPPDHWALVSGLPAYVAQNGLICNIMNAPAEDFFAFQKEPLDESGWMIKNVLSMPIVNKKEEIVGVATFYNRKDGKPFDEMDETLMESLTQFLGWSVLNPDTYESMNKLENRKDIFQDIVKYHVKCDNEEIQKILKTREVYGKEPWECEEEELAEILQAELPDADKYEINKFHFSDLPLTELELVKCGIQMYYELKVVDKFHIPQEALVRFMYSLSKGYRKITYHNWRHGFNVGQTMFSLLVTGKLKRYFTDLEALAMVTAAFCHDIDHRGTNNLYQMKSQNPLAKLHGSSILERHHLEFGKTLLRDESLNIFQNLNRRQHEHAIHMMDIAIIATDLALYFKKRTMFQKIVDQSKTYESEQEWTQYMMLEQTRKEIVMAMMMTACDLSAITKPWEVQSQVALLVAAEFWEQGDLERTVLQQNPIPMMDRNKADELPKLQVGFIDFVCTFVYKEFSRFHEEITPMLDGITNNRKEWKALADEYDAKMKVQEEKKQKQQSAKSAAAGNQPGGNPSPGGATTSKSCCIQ
Sequence (P35913 other isoform, or with tags, fused parts or gaps isoform P35913-2): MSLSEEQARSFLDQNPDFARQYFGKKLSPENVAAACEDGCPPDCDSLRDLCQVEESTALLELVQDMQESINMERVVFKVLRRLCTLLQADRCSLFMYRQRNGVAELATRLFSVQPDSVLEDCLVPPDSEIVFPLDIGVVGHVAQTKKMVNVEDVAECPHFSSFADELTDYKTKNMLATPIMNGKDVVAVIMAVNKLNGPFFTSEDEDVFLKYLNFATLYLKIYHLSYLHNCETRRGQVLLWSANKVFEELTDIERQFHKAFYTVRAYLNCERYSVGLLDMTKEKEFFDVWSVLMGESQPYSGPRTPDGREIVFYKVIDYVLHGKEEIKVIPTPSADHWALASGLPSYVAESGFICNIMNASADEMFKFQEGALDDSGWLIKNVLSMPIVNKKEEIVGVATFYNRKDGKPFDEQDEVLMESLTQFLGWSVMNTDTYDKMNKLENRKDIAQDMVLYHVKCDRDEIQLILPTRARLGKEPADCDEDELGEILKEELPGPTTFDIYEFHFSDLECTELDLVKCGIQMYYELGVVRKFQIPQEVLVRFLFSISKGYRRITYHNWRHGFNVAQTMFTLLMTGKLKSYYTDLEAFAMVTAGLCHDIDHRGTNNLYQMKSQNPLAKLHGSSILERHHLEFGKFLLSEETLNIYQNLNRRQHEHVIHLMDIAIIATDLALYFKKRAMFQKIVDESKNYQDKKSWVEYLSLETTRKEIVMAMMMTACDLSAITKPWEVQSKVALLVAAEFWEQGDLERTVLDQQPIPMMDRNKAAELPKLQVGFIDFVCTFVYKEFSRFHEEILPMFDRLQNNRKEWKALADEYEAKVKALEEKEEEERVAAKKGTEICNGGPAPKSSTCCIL
Assay: PDE enzyme assay using [3H]cGMP as substrate (radiometric SPA)
Details: human PDE6A/6B dimer 5 nM, [3H]cGMP 80 nM; read-out: PDE 6AB IC50
Experimental: The nucleotide sequences encoding full-length human PDE1A (NP_001003683.1) and PDE1C (NP_005011.1) are inserted into pFastBac1 (Invitrogen) vector with an N-terminal HIS tag. […] All 3′,5′ cyclic nucleotide phosphodiesterase (PDE) enzyme activities are measured with a radiometric enzyme assay based on SPA detection system (scintillation proximity assay). […] Samples are read 12 hours later in a MICROBETA™ TRILUX® Counter. […]
property: IC50

// below: answered compounds
{"compound": "CCC(Cn1c(=O)c2nnc(C3(C4CC4)CC3)n2c2ncccc21)OC (racemic) [Example 4]", "IC50": "> 10 µM"}
{"compound": "CCCCn1c(=O)c2nnc(C3(C(F)(F)F)CC3)n2c2ncc(C)cc21", "IC50": "> 10 µM"}
{"compound": "CCCCn1c(=O)c2nnc(C3(C4CC4)CC3)n2c2nc(C)c(C)cc21", "IC50": "1.2 µM"}
{"compound": "CCCCn1c(=O)c2nnc(C3(C4CC4)CC3)n2c2ncc(C)cc21", "IC50": "≥ 3.45 µM"}

## Task Dear colleague, please send me the reported IC50 for CCCCn1c(=O)c2nnc(C3(C)CC3)n2c2ncc(CO)cc21 when you can.
## Result 3.06 µM

## Task Dear colleague, please send me the reported IC50 for O=c1c2nnc(C3(C4CC4)CC3)n2c2nc(O)ccc2n1CC1CC1 when you can.
## Result > 10 µM

## Task Dear colleague, please send me the reported IC50 for CCCn1c(=O)c2nnc(C3(C4CC4)CC3)n2c2ncc(C)cc21 when you can.
## Result > 10 µM

## Task Dear colleague, please send me the reported IC50 for CCC(Cn1c(=O)c2nnc(C3(C4CC4)CC3)n2c2ncccc21)OC (single isomer, unassigned) [Example 4a] when you can.
## Result > 10 µM

## Task Dear colleague, please send me the reported IC50 for CCCCn1c(=O)c2nnc(C3(C)CC3)n2c2ncc(C)cc21 when you can.
## Result 9.59 µM

Sourced from patent US11180503B2
